tested.system: SIRT1 (Homo sapiens)
Sequence (Q96EB6 whole entry): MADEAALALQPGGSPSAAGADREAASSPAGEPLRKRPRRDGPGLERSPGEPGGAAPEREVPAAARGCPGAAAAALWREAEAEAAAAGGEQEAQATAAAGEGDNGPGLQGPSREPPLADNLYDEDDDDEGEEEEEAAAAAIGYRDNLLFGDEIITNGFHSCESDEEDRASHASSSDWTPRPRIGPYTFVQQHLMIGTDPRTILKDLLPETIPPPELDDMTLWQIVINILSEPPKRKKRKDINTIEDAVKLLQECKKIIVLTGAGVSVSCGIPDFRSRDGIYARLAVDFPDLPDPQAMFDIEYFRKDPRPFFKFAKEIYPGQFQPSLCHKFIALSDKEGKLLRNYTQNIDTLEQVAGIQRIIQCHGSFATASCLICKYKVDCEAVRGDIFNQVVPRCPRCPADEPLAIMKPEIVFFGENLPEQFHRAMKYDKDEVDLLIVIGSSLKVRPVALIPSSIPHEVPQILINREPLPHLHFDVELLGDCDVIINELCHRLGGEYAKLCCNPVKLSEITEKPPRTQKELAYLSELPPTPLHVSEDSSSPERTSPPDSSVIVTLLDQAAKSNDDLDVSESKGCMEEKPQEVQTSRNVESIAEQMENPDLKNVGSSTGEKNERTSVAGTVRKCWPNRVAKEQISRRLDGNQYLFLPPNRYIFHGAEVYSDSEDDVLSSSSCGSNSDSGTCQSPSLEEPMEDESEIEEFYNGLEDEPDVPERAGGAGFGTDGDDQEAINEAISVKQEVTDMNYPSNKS
assay.summary: Trp mass spectrometry assay (SIRT1 activation)
Format: biochemical
conditions.used: Trp mass spectrometry assay; EC1.5 = concentration giving 150% activation of SIRT1
observation.type: Tryp AVG EC1.5 (μM)

Here is how some compounds turned out for Tryp AVG EC1.5 (μM).
O=C(Nc1ccccn1)N1c2nc(-c3cccc(C(F)(F)F)c3)ccc2N2CC[C@@H]1C2 :: A (EC1.5<1 μM)
O=C(NCCCc1ccncc1)N1c2nc(-c3cccc(C(F)(F)F)c3)ccc2N2CC[C@H]1C2 :: B (EC1.5 1-25 μM)
O=C(Nc1nnc(-c2cccnc2)o1)N1c2nc(-c3cccc(C(F)(F)F)c3)ccc2N2CC[C@H]1C2 :: A (EC1.5<1 μM)
O=C(Nc1cccnn1)N1c2nc(-c3cccc(C(F)(F)F)c3)ccc2N2C[C@@H](O)[C@H]1C2 :: B (EC1.5 1-25 μM)
O=C(Nc1cccc(Br)n1)N1c2nc(-c3cccc(C(F)(F)F)c3)ccc2N2CC[C@H]1C2 :: A (EC1.5<1 μM)

Query: What value of measured Tryp AVG EC1.5 (μM) is listed for O=C(Nc1nncs1)N1c2nc(-c3cccc(C(F)(F)F)c3)ccc2N2CC[C@H]1C2 ?
Response: A (EC1.5<1 μM)

Query: What value of measured Tryp AVG EC1.5 (μM) is listed for O=C(Nc1nnc(-c2cccnc2)s1)N1c2nc(-c3cccc(C(F)(F)F)c3)ccc2N2CC[C@H]1C2 ?
Response: A (EC1.5<1 μM)

Query: What value of measured Tryp AVG EC1.5 (μM) is listed for O=C(Nc1ccccn1)N1c2nc(-c3cccc(C(F)(F)F)c3)ccc2N2CC[C@H]1C2 ?
Response: A (EC1.5<1 μM)

Query: What value of measured Tryp AVG EC1.5 (μM) is listed for O=C(Nc1cc(-c2cnco2)ccn1)N1c2nc(-c3cccc(Cl)c3)ccc2N2C[C@@H](O)[C@H]1C2 ?
Response: B (EC1.5 1-25 μM)

Query: What value of measured Tryp AVG EC1.5 (μM) is listed for COc1cc(NC(=O)N2c3nc(-c4cccc(C(F)(F)F)c4)ccc3N3C[C@@H](O)[C@H]2C3)nc(OC)n1 ?
Response: B (EC1.5 1-25 μM)

Query: What value of measured Tryp AVG EC1.5 (μM) is listed for C[C@@H](N)CS(=O)(=O)c1cccc(-c2ccc3c(n2)N(C(=O)Nc2cc(-c4ccnn4C)nc(-c4ccnn4C)c2)[C@H]2CCN3C2)c1 ?
Response: A (EC1.5<1 μM)

Query: What value of measured Tryp AVG EC1.5 (μM) is listed for O=C(Nc1cccc(-c2cnco2)n1)N1c2nc(-c3cncc(C(F)(F)F)c3)ccc2N2C[C@@H](O)[C@H]1C2 ?
Response: A (EC1.5<1 μM)

Query: What value of measured Tryp AVG EC1.5 (μM) is listed for NCc1cccc(NC(=O)N2c3nc(-c4cccc(C(F)(F)F)c4)ccc3N3CCC[C@H]2C3)c1 ?
Response: A (EC1.5<1 μM)

Query: What value of measured Tryp AVG EC1.5 (μM) is listed for COc1cc(NC(=O)N2c3nc(-c4cncc(C(F)(F)F)c4)ccc3N3C[C@@H](O)[C@H]2C3)ncn1 ?
Response: B (EC1.5 1-25 μM)
